Test: Decomposition reaction under chemical conditions (half life in buffer solution of pH 7.4, HPLC)
Format: physicochemical
Conditions: ph 7.4 buffer/dma, pH 7.4 buffer / N,N-dimethylacetamide 50 v/v%, 37° C., read-out: Half life (t1/2) (converted)
For each record, write down the corresponding half-life at 5 µM.

| chemical string | reported measurement |
| --- | --- |
| COC(=O)c1c(C(F)(F)F)[nH]c2c(OC(=O)N3CCC[C@H]3CO)cc3c(c12)[C@H](CCl)CN3C(=O)c1cc2cc(NC(=O)c3cc4cccc(OC)c4o3)ccc2[nH]1 | > 480 min |

Here are 2 compounds. What values of half-life at 5 µM were reported for them?
1. COC(=O)c1c(C(F)(F)F)[nH]c2c(OC(=O)N3C[C@H](O)C[C@H]3CO)cc3c(c12)[C@H](CCl)CN3C(=O)c1cc2cc(NC(=O)c3cc4cccc(OC)c4o3)ccc2[nH]1
2. COC(=O)c1c(C(F)(F)F)[nH]c2c(OC(=O)N3CCC[C@H]3CN3CCCC3)cc3c(c12)[C@H](CCl)CN3C(=O)c1cc2cc(NC(=O)c3cc4cccc(OC)c4o3)ccc2[nH]1

Given back:
1. > 480 min
2. 60 min

Origin of values: patent US6080859A
